Assay: RPMI8226 myeloma cell viability, profiling panel, resazurin fluorescence, basal, 24 h, PK04 Diversity Set (AID 1180);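 further: RPMI8826 multiple myeloma cell line at 5000 cells per well; test concentration not given here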
Conditions: higher = more signal
Examples of molecules with documented z-score follow.

{"molecule": "O=C1C2=CC[C@H]3C(=O)N(c4cccc(Oc5ccccc5)c4)C(=O)[C@H]3[C@H]2[C@H](O)[C@@H]2O[C@H]12", "z-score": -3.76}
{"molecule": "CC(=O)OC[C@H]1O[C@H](C#Cc2ccccc2)C=C[C@@H]1OC(C)=O", "z-score": -2.61}
{"molecule": "CC(C)=CCCC(C)=CCON=C1C[C@@H](O)[C@@H](O)[C@@H]2[C@@H]3C(=O)N(Cc4ccccc4)C(=O)[C@@H]3CC[C@H]12", "z-score": 0.369}
{"molecule": "COc1cccc([C@H]2Oc3ccc(OC)cc3C(=NO[C@@H](C)c3cn([C@H](CO)Cc4ccccc4)nn3)[C@@H]2O)c1", "z-score": 0.22}
{"molecule": "Cn1c(=O)n2n(c1=O)[C@H]1[C@H](O)[C@@H]3O[C@@H]3C(=NOCc3ccccc3)[C@H]1CC2", "z-score": -0.336}
{"molecule": "O=C(C=Cc1ccc2c(c1)OCO2)c1ccc(F)cc1", "z-score": -0.538}
{"molecule": "CO[C@H]1COC(=O)CCC[C@@H](C)[C@H](OC)COC(=O)[C@@H](C)NC(=O)CC=C[C@@H]1C", "z-score": 0.0228}
{"molecule": "O=C1[C@H]2[C@H]3[C@H](O)[C@H](O)CC(=NO[C@@H]4O[C@H](CO)[C@@H](O)[C@H](O)[C@H]4O)[C@H]3CC[C@H]2C(=O)N1c1cccc(Oc2ccccc2)c1", "z-score": 0.394}
{"molecule": "CCOC(=O)[C@H](CC(C)C)NC(=O)CCC1CC(OC(=O)NCc2ccc3c(c2)OCO3)CC2(CCCC(COC(=O)NCC3CCCCC3)O2)O1 (stereo not given in full)", "z-score": 1.32}
{"molecule": "CCCNC(=O)OC[C@H]1O[C@H](CCON=C(C)CCC(=O)OC[C@H]2O[C@H](c3ccccc3)C=C[C@@H]2Oc2ccc(OC)cc2)C=C[C@@H]1Oc1ccc(OC)cc1", "z-score": 1.31}
{"molecule": "CCOC(=O)[C@H](CC(C)C)NC(=O)CCC1CC(OC(=O)NCc2cccc3ccccc23)CC2(CCCC(COC(=O)NCC3CCCCC3)O2)O1 (stereo not given in full)", "z-score": 0.463}
{"molecule": "COCCNC(=O)OCC1CCCC2(CC(OC(=O)NCc3ccc4c(c3)OCO4)CC(CCC(=O)N[C@@H](C)C(=O)OC)O2)O1 (stereo not given in full)", "z-score": 0.528}
{"molecule": "O=c1n(Cc2cc3c(cc2Cl)OCO3)c(=O)n2n1CC[C@@H]1C(=NOC[C@@H](O)COCc3ccco3)[C@H]3O[C@H]3[C@@H](O)[C@@H]12", "z-score": -0.614}
{"molecule": "CCOC(=O)CCN1C(=O)[C@H]2[C@H]3[C@H](O)[C@H](O)CC(=NOCC(C)C)[C@H]3CC[C@H]2C1=O", "z-score": -0.876}
{"molecule": "C=CC[C@@H]1C=C[C@H](ON=C(C)CCN2CCc3nc(-c4ccccc4)c(-c4ccccc4)cc3C2)[C@@H](CO)O1", "z-score": 0.365}

---

Measured z-score by item
Target: NADPH oxidase 4 (Homo sapiens) (UniProt Q9NPH5)
Sequence (Q9NPH5 whole entry, looked up): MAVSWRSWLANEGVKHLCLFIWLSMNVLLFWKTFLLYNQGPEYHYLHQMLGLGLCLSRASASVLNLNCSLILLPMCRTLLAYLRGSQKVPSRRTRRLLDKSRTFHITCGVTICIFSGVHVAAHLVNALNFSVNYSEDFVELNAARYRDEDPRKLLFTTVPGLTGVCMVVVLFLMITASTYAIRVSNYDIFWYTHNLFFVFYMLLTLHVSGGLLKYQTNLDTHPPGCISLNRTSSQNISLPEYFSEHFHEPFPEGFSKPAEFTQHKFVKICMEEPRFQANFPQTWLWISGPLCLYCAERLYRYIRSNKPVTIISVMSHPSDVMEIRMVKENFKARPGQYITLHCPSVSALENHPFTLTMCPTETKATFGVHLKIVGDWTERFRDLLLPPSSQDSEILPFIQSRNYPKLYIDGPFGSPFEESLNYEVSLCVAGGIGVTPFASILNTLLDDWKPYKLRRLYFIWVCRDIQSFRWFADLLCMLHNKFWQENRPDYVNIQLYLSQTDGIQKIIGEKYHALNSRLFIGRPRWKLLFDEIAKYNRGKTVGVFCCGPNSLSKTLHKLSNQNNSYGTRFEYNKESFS
Assay: NOX4-dependent H2O2 signal modulators, primary screen, NOX inhibitor project, cell-based, HEK293-NOX4, tetracycline-induced, Amplex Red fluorescence (AID 1160)
Conditions: 45 min, higher = more signal, called active from +8 up or from −8 down
experimental_endpoint: z-score

{"compound": "COC(=O)[C@@H]1CC[C@H](C)[C@@H](c2ccc(C)cc2)N1C(=O)c1ccc(C=NO[C@H](C)c2cn([C@H](CO)Cc3ccccc3)nn2)cc1", "study_target": "NADPH oxidase 4 (Homo sapiens) (UniProt Q9NPH5)", "measured_value": -0.591}
{"compound": "CCOC(=O)NN=C1C[C@@H](O)[C@@H](O)[C@@H]2[C@@H]3C(=O)N([C@@H](C)c4ccccc4)C(=O)[C@@H]3CC[C@H]12", "study_target": "NADPH oxidase 4 (Homo sapiens) (UniProt Q9NPH5)", "measured_value": 0.67}
{"compound": "CC(C)CON=C1C[C@@H](O)[C@@H](O)[C@@H]2[C@@H]3C(=O)N(C[C@@H]4CCCO4)C(=O)[C@@H]3CC[C@@H]12", "study_target": "NADPH oxidase 4 (Homo sapiens) (UniProt Q9NPH5)", "measured_value": 0.816}
{"compound": "COC(=O)CC=C[C@@H](C)[C@@H]1C=C[C@H](O)[C@@H](CO)O1", "study_target": "NADPH oxidase 4 (Homo sapiens) (UniProt Q9NPH5)", "measured_value": -0.23}
{"compound": "CO[C@H](C1CCCCC1)[C@H](C)C=CCC(=O)OCCCc1ccccc1", "study_target": "NADPH oxidase 4 (Homo sapiens) (UniProt Q9NPH5)", "measured_value": -3.56}
{"compound": "CC(C)(C)N1C(=O)[C@H]2[C@H]3[C@H](O)C=CC(=O)[C@@H]3CC[C@H]2C1=O", "study_target": "NADPH oxidase 4 (Homo sapiens) (UniProt Q9NPH5)", "measured_value": -1.67}
{"compound": "O=C(NN=C1C[C@@H](O)[C@@H](O)[C@@H]2[C@@H]3C(=O)N(C4CCCCC4)C(=O)[C@@H]3CC[C@@H]12)OCc1ccccc1", "study_target": "NADPH oxidase 4 (Homo sapiens) (UniProt Q9NPH5)", "measured_value": -0.223}
{"compound": "CCOC(=O)CCN1C(=O)[C@H]2[C@H]3[C@H](O)[C@H](O)CC(=NOCc4ccccc4)[C@H]3CC[C@H]2C1=O", "study_target": "NADPH oxidase 4 (Homo sapiens) (UniProt Q9NPH5)", "measured_value": 0.622}
{"compound": "CCc1cc2c(nc1CC)CCN(CCC(C)=NO[C@H](C)c1cn([C@H](CO)Cc3ccccc3)nn1)C2", "study_target": "NADPH oxidase 4 (Homo sapiens) (UniProt Q9NPH5)", "measured_value": -0.461}
{"compound": "COC(=O)CC=C[C@@H](C)[C@@H](C=NOC(C)CN1CCCc2nc(C)c(C)cc21)OC (stereo partly specified)", "study_target": "NADPH oxidase 4 (Homo sapiens) (UniProt Q9NPH5)", "measured_value": -0.14}
{"compound": "O=C(NN=C1C[C@@H](O)[C@@H](O)[C@@H]2[C@@H]3C(=O)N(Cc4ccccc4)C(=O)[C@@H]3CC[C@@H]12)OCc1ccccc1", "study_target": "NADPH oxidase 4 (Homo sapiens) (UniProt Q9NPH5)", "measured_value": 0.0701}
{"compound": "C#CCCCON=C1C[C@@H](O)[C@@H](O)[C@@H]2[C@@H]3C(=O)N(c4ccc(F)cc4F)C(=O)[C@@H]3CC[C@@H]12", "study_target": "NADPH oxidase 4 (Homo sapiens) (UniProt Q9NPH5)", "measured_value": 0.813}
{"compound": "CC(C)CON=C1C[C@@H](O)[C@@H](O)[C@@H]2[C@@H]3C(=O)N(C4CCCCC4)C(=O)[C@@H]3CC[C@@H]12", "study_target": "NADPH oxidase 4 (Homo sapiens) (UniProt Q9NPH5)", "measured_value": -1.59}
{"compound": "C#CCCCON=C1[C@H]2CCn3c(=O)n(-c4ccccc4)c(=O)n3[C@H]2[C@H](O)[C@@H]2O[C@H]12", "study_target": "NADPH oxidase 4 (Homo sapiens) (UniProt Q9NPH5)", "measured_value": 0.137}
{"compound": "COc1cccc([C@H]2Oc3ccc(OC)cc3C(=NOC[C@@H](O)COCc3ccco3)[C@@H]2O)c1", "study_target": "NADPH oxidase 4 (Homo sapiens) (UniProt Q9NPH5)", "measured_value": 0.378}
{"compound": "CC(C)CON=C1C[C@@H](O)[C@@H](O)[C@@H]2[C@@H]3C(=O)N(C4CCCCC4)C(=O)[C@@H]3CC[C@H]12", "study_target": "NADPH oxidase 4 (Homo sapiens) (UniProt Q9NPH5)", "measured_value": -0.118}

---

Assay: P. aeruginosa biofilm formation inhibitors, primary screen, strain PAO1, LB-PBS medium, absorbance 600 nm (AID 1176); further: test concentration not given here
Details: P. aeruginosa PAO1 growth/biofilm, A600, 12 h; higher = more signal
Use 0.01 as the dividing line for z-score, with the line itself on the Satisfied side and lower values as Not satisfied.

{"compound": "CC(C)(C)N1C(=O)[C@H]2[C@H]3[C@H](O)[C@H](O)CC(=NO[C@@H]4O[C@H](CO)[C@@H](O)[C@H](O)[C@H]4O)[C@H]3CC[C@H]2C1=O", "category": "Satisfied"}
{"compound": "C[n+]1ccc(-c2ccc(CO)cc2)cc1", "category": "Not satisfied"}
{"compound": "CCOC(=O)[C@H](Cc1ccccc1)NC(=O)CCC1CC(OC(=O)NCCc2ccc(F)cc2)CC2(CCCC(COC(=O)NCc3ccccc3)O2)O1 (stereo not given in full)", "category": "Satisfied"}
{"compound": "COc1ccc(COC(=O)NN=C2C[C@@H](O)[C@@H](O)[C@@H]3[C@@H]4C(=O)N(c5cccc(Oc6ccccc6)c5)C(=O)[C@@H]4CC[C@@H]23)cc1", "category": "Not satisfied"}
{"compound": "CC(CCN1CCCc2nc(C)c(C)cc21)=NO[C@@H](C)c1cc(-c2c(C)cc(C)cc2C)no1", "category": "Satisfied"}
{"compound": "O=C1C[C@@H](O)[C@@H](O)[C@@H]2[C@@H]3C(=O)N(Cc4ccc5c(c4)OCO5)C(=O)[C@@H]3CC[C@H]12", "category": "Not satisfied"}
{"compound": "C[C@@H]1CC[C@H]2C(=O)O[C@@H](Cc3ccccc3)CN2[C@H]1c1ccc(Br)cc1", "category": "Not satisfied"}
{"compound": "C[C@H]1COC(=O)[C@@H]2CCCN2C(=O)[C@@H](C)COC(=O)[C@H](Cc2ccccc2)NC1=O", "category": "Not satisfied"}
{"compound": "COC(=O)CC=C[C@@H](C)[C@@H](C=NOCC[C@@H]1C=C[C@H](OC(C)=O)[C@@H](COC(C)=O)O1)OC", "category": "Not satisfied"}
{"compound": "CSCC[C@@H]1NC(=O)CC=C[C@@H](C)COC(=O)[C@@H](C)COC1=O", "category": "Not satisfied"}
{"compound": "COc1ccc(O[C@H]2C=C[C@@H](c3ccccc3)O[C@@H]2CON=C2[C@H]3CCn4c(=O)n(-c5ccccc5)c(=O)n4[C@H]3[C@H](O)[C@@H]3O[C@H]23)cc1", "category": "Not satisfied"}
{"compound": "COc1ccc(O[C@H]2C=C[C@@H](c3ccccc3)O[C@@H]2CON=C(C)CCN2CCc3nc(-c4ccccc4)c(-c4ccccc4)cc3C2)cc1", "category": "Satisfied"}
{"compound": "CCOC(=O)C1=NO[C@@]2(C=C(Br)C3(OCCCO3)[C@H]3O[C@H]32)C1", "category": "Satisfied"}
{"compound": "CC(CCN1CCCc2nc(C)c(C)cc21)=NOC(C)CN1CCCCc2nc(C)c(C)cc21 (stereo not given)", "category": "Satisfied"}
{"compound": "CC(=O)OC[C@H]1O[C@H](CC=NO[C@H](C)c2cn([C@H](CO)Cc3ccccc3)nn2)C=C[C@@H]1OC(C)=O", "category": "Satisfied"}

src = PubChem BioAssay
